# targetEntity: Transient receptor potential cation channel subfamily V member 6 (Homo sapiens, UniProt Q9H1D0)
# Sequence (Q9H1D0 whole entry): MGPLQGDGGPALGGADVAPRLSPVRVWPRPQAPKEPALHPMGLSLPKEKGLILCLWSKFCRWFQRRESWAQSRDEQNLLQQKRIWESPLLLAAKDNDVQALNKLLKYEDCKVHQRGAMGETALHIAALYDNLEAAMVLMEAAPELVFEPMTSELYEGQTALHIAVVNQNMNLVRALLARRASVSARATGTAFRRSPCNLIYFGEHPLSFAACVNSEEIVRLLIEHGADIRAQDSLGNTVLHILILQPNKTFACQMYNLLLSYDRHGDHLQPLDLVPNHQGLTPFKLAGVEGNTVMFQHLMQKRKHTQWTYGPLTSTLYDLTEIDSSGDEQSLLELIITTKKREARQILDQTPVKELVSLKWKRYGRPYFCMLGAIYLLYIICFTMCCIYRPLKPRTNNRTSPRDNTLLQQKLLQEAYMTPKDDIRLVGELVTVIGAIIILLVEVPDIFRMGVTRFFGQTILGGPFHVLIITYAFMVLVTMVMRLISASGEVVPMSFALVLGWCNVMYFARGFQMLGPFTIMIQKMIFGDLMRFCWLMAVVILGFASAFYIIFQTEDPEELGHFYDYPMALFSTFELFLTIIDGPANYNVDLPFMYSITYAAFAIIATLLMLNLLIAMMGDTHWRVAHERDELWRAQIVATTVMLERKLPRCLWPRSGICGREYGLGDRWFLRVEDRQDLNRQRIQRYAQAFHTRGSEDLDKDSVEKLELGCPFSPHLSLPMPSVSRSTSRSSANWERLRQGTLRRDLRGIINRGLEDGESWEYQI
# measurementDescription: Inhibition of human TRPV6 expressed in HEK293 cells assessed as reduction of Cd2+ influx preincubated for 5 mins followed by CdCl2 addition measured under dark state by calcium-5 fluorescence dye-based FLIPR assay
# Assay type: cell-based
endpoint: IC50 (nM)
Give just the number in nM; leave the unit off.

[Q] Dear colleague, I am looking for the recorded IC50 of the following compound: c1ccc(/N=N/c2ccc(CN3CCN([C@H]4CC[C@@H](c5ccccc5)CC4)CC3)cn2)cc1
[A] 600

====

# reported remaining at 48 h, 500 µM; entries follow
# measurementDescription: Stability in DMSO assessed as parent compound remaining at 500 uM incubated for 48 hrs in dark by RP-UHPLC analysis
# Format: physicochemical
# assayConditions: read-out: Stability
Please give a number only; it is taken to be in %.

Examples with answers:
>>> print(df.to_string())
                                  structure  number
0  c1ccc(/N=N/c2ccc(CN3CCN([C@H]4CC[C@@H](c5ccccc5)CC4)CC3)cc2)cc1      97
1  c1ccc([C@H]2CC[C@@H](N3CCN(c4ccc(/N=N/c5cccnc5)cc4)CC3)CC2)cc1     100
2  c1ccc(/N=N/c2ccc(CN3CCN([C@H]4CC[C@@H](c5ccccc5)CC4)CC3)cn2)cc1     100
3  c1ccc(/N=N/c2ccc(N3CCN([C@H]4CC[C@@H](c5ccccc5)CC4)CC3)cc2)cc1      93

Proceed to the following item.
[Q] Param item = c1ccc(/N=N/c2ccc(N3CCN([C@H]4CC[C@@H](c5ccccc5)CC4)CC3)cn2)cc1 ; retrieve measured remaining at 48 h, 500 µM.
[A] 100
